Ref: ChEMBL document CHEMBL1144770

target: Integrin alpha-V/beta-3 (Homo sapiens, UniProt P05106+P06756); assay: Displacement of [125I]echistatin from human placental integrin alphaVbeta3 receptor
Sequence (P05106 27-788 limits assumed): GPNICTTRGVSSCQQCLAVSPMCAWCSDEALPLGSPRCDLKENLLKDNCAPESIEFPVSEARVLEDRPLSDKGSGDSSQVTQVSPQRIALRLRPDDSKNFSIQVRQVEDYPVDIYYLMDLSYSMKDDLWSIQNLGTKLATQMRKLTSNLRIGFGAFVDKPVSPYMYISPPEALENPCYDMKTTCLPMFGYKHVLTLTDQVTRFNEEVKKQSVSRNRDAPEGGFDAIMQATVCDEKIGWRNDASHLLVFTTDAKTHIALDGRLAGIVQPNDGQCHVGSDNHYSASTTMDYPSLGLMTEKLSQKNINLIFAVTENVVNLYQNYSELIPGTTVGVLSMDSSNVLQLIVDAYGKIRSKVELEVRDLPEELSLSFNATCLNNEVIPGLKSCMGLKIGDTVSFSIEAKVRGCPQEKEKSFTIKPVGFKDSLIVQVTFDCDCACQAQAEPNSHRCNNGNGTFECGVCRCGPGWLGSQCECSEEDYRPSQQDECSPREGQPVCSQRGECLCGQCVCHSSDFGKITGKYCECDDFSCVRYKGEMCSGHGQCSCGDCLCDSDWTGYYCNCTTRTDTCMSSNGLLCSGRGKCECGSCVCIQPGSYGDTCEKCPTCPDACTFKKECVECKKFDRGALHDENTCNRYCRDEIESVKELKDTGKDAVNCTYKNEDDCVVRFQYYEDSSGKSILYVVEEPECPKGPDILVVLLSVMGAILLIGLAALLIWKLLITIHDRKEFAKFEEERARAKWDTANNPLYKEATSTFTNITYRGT
Sequence (P06756 31-889 limits assumed): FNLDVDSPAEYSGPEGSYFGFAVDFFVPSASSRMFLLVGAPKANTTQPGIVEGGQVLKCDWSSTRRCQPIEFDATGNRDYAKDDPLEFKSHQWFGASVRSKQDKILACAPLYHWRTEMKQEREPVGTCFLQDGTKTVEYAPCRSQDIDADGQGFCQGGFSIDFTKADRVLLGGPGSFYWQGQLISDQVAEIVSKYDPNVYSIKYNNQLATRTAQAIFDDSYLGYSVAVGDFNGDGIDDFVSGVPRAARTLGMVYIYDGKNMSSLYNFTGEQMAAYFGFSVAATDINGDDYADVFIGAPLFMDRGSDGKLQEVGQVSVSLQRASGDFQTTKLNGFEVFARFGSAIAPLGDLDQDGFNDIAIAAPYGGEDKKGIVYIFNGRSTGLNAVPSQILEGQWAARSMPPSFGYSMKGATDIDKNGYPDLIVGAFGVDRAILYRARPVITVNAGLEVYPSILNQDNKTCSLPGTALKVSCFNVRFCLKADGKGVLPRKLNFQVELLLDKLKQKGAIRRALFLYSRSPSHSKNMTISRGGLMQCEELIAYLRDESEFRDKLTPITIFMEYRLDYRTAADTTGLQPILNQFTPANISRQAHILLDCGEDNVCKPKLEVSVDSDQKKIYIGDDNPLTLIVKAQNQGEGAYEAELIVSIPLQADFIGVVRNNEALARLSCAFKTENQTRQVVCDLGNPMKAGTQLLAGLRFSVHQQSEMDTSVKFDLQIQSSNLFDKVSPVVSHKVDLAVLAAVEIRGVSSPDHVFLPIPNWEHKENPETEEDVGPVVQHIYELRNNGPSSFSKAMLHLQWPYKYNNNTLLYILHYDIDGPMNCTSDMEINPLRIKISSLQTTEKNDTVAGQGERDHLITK
Sequence (P06756 891-1048 limits assumed): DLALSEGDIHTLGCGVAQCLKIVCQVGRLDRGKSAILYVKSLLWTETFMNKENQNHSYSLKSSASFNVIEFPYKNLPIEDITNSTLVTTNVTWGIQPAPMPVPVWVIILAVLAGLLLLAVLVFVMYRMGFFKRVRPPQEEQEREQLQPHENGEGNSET
Can you tell me pIC50 for the items I'm about to list?
One number for each entry, as −log10 of the molar value.

NC(N)=NCCC[C@@H]1NC(=O)[C@]23CCCN2C(=O)[C@@H](C3)NC(=O)[C@H](CC(=O)O)NC(=O)CNC1=O
5.67

Please find the next compound below.
According to the records, this compound "N=C(N)NCCC[C@@H]1NC(=O)[C@@]23CCCN2C(=O)[C@H](C3)NC(=O)[C@H](CC(=O)O)NC(=O)CNC1=O" displays pIC50 of 7.46

----------
target: Integrin alpha-V/beta-5 (Homo sapiens, UniProt P06756+P18084); assay: Displacement of [125I]Echistatin from human placental integrin alpha-V-beta-5 receptor
Sequence (P06756 31-889 limits assumed): as the sequence (P06756 31-889 limits assumed) above
Sequence (P06756 891-1048 limits assumed): as the sequence (P06756 891-1048 limits assumed) above
Sequence (P18084 24-799 limits assumed): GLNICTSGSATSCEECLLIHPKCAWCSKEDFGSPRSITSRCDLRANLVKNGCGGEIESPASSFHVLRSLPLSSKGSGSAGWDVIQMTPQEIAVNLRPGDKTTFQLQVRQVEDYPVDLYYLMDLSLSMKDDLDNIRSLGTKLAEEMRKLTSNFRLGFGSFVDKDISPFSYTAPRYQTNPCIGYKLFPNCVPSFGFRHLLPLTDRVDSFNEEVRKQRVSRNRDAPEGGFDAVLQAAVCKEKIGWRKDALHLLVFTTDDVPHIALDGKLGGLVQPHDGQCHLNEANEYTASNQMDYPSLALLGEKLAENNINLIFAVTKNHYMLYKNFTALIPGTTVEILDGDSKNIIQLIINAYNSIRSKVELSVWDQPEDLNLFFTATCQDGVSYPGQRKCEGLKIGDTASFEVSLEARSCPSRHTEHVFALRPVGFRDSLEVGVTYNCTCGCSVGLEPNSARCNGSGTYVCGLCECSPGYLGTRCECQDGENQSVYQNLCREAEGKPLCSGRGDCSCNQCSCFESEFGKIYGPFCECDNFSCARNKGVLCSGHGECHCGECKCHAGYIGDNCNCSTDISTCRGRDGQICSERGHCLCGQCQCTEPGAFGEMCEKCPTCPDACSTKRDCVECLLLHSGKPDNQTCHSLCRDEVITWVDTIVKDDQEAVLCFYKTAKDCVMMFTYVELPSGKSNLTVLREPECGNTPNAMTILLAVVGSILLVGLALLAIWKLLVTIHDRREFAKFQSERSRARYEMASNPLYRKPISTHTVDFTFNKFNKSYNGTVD
For each entry below, report its pIC50 value.
Give bare numbers, as −log10 of the molar value.

NC(N)=NCCC[C@@H]1NC(=O)[C@]23CCCN2C(=O)[C@@H](C3)NC(=O)[C@H](CC(=O)O)NC(=O)CNC1=O
5.10

Moving on to the next compound.
compound "N=C(N)NCCC[C@@H]1NC(=O)[C@@]23CCCN2C(=O)[C@H](C3)NC(=O)[C@H](CC(=O)O)NC(=O)CNC1=O" , pIC50 observed: 7.84
